Measured Classification, listed per entry.
- Target entity: GST-Atrophin-1 Interacting Protein PDZ domain 5 (Rattus norvegicus (Rat)), O88382
- Sequence (O88382 1128-1225): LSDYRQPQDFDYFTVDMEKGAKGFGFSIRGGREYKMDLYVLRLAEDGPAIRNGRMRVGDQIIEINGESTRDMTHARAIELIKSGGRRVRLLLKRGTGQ
- Experiment notes: G' assay; further: key of the grades not given here
Express your answer in A450 class, writing the number without its unit.

Example results:
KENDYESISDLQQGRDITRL (modifications not checked) [PAG] = 1
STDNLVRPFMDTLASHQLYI (modifications not checked) [presenilin-2] = 1
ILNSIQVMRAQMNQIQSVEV (modifications not checked) [ephrin B2] = 2
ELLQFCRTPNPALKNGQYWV (modifications not checked) [CSPG4 (chondroitin sulfae proteoglycan 4, melanoma-associated)] = 2
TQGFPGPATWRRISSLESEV (modifications not checked) [NMDA Glutamate Receptor 2C (cysteine-free)] = 5

Query: Classification; subject: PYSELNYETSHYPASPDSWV (modifications not checked) [catenin - delta 2]
5
